// provenance: patent US20140377340A1

# Target Or Test System: purified HLA DRB1*1101 (Homo sapiens, UniProt P01903+P01911, A100R/A169T/A87E/I96F/K41T/L162R/M171V/P40S/Q125H/Q178H/Q39Y/Q99D/R42S/S66Y/T262R/V115G/W38E)
# Construct: purified from EBV transformed homozygous cell lines or single MHC allele transfected 721.221, C1R, or fibroblast lines; made in house
# Sequence (P01903 26-254, other chains not shown): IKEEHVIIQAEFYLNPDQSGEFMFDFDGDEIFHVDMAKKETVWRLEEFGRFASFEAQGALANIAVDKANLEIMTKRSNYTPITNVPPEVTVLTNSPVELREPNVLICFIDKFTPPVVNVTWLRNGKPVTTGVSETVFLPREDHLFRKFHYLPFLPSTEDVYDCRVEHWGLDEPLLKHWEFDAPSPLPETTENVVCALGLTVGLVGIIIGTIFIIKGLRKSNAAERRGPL
# Assay Text: HLA-DR radioligand binding inhibition assay, DRB1*1101
# Applied Conditions: IC50 nM purified HLA DRB1 *1101, purified HLA DRB1*1101
Readout: IC50 (nM)
API: value field is a number in nM; no unit string.

**Q:** GET /values?readout=IC50&item= CC[C@H](C)[C@H](NC(=O)[C@@H](N)CO)C(=O)N[C@H](C(=O)N[C@H](C(=O)N[C@@H](CO)C(=O)N[C@@H](C)C(=O)N[C@@H](CO)C(=O)NCC(=O)N[C@H](C(=O)N[C@@H](CO)C(=O)N1CCC[C@H]1C(=O)NCC(=O)N[C@@H](CC(C)C)C(=O)N[C@@H](CO)C(=O)N[C@@H](C)C(=O)O)[C@@H](C)O)C(C)C)[C@@H](C)O [Peptide 9019.0143]
**A:** 3320

**Q:** Reported IC50, compound CC(C)C[C@H](NC(=O)[C@H](C)NC(=O)[C@H](Cc1ccc(O)cc1)NC(=O)[C@H](CC(N)=O)NC(=O)[C@H](CC(=O)O)NC(=O)[C@H](CCC(=O)O)NC(=O)[C@H](Cc1ccccc1)NC(=O)[C@H](CC(C)C)NC(=O)[C@H](CCC(N)=O)NC(=O)[C@@H](NC(=O)CN)[C@@H](C)O)C(=O)N[C@@H](C)C(=O)N[C@H](C(=O)N[C@@H](CC(C)C)C(=O)N[C@@H](CC(=O)O)C(=O)O)C(C)C [Peptide 9019.0001] : ____
**A:** 9130

---

Consider the following compounds; for each one, report its IC50.
# Target Or Test System: purified HLA DRB1*0701 (Homo sapiens, UniProt P01903+P01911, A100R/A102G/A103Q/D57E/D86V/E43K/F76Y/K127E/L162R/M171V/P40G/Q125H/Q99D/R33Q/R42Y/R54Q/S133A/S66F/T210M/V115G/Y107V/Y59L/Y89S)
# Construct: purified from EBV transformed homozygous cell lines or single MHC allele transfected 721.221, C1R, or fibroblast lines; made in house
# Assay Text: HLA-DR radioligand binding inhibition assay, DRB1*0701
# Applied Conditions: IC50 nM purified HLA DRB1 *0701, purified HLA DRB1*0701
Your answer is read as nM, so omit the unit and give the number.

**Q:** Fill blank: measured IC50 of the compound CC[C@H](C)[C@H](NC(=O)[C@@H](NC(=O)[C@@H]1CCCN1C(=O)[C@H](C)N)[C@@H](C)O)C(=O)N[C@@H](CCCNC(=N)N)C(=O)NCC(=O)N[C@@H](CC(=O)O)C(=O)N1CCC[C@H]1C(=O)N[C@@H](CCC(=O)O)C(=O)N[C@@H](CS)C(=O)N[C@@H](Cc1c[nH]cn1)C(=O)N[C@@H](CC(C)C)C(=O)N[C@@H](Cc1ccccc1)C(=O)N[C@@H](Cc1ccc(O)cc1)C(=O)N[C@@H](CC(N)=O)C(=O)O [Peptide 9019.0022] is ____.
**A:** 16800

**Q:** So what does the record say about IC50 for CC[C@H](C)[C@H](NC(=O)[C@@H](NC(=O)[C@H](CCC(=O)O)NC(=O)[C@H](CCCCN)NC(=O)[C@H](CCSC)NC(=O)[C@H](CCCCN)NC(=O)[C@H](CO)NC(=O)[C@H](C)NC(=O)[C@@H](NC(=O)[C@H](Cc1ccccc1)NC(=O)[C@H](CCSC)NC(=O)[C@H](CS)NC(=O)[C@@H](N)[C@@H](C)O)C(C)C)[C@@H](C)O)C(=O)N1CCC[C@H]1C(=O)N[C@@H](CC(C)C)C(=O)O [Peptide 9019.0157] ?
**A:** 17
